Form field: pKi (one value per entry).
Biological target: human CB2 receptor (Homo sapiens, UniProt P34972)
Sequence (P34972 whole entry): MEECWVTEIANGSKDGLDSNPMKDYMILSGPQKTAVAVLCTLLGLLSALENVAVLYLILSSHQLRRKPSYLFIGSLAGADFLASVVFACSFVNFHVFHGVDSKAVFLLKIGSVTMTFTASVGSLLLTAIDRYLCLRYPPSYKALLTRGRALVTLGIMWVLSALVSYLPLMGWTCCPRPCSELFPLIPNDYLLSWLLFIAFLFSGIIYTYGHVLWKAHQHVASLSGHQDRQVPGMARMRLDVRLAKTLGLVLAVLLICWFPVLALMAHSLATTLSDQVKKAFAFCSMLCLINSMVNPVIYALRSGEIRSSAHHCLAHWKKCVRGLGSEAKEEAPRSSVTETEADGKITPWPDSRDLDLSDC
Experiment: Radioligand binding (heterologous competition) vs. [3H]CP55,940 at CB2
Conditions: Ki CB2, heterologous competition vs. [3H]CP55,940, membranes of CHO cells expressing human CB2; three independent experiments in duplicates
Worth noting: pKi values are minus log10 of concentrations stated in mol/L.

Some compounds with recorded pKi:
COMPOUND	pKi
CCCc1ccc(O)c(-c2cc(C)ccc2O)c1	5.13
CCCCCCc1ccc(O)c(-c2cc(CCC)ccc2OC)c1 [Compound 61a]	7.62
CCCCCCc1ccc(O)c(-c2cc(CCC)ccc2O)c1	7.53
CCCCCc1ccc(O)c(-c2cc(CCC)ccc2O)c1	7.43
CCCCCc1ccc(O)c(-c2cc(CCC)ccc2OC)c1 [Compound 60a]	7.51

Q) For the compound C=CCc1ccc(O)c(-c2ccc(OC)c(CC=C)c2)c1 [Compound 11, 4′-O-Methylhonokiol, reference compound] , give its reported pKi.
A) 7.36

Q) For the compound CCCCCCc1ccc(O)c(-c2cc(CC)ccc2O)c1 , give its reported pKi.
A) 7.08

Q) For the compound CCCc1ccc(O)c(-c2cc(CCC)ccc2OC)c1 [Compound 12a, methoxytetrahydromagnolol] , give its reported pKi.
A) 6.66

###

Biological target: human GPR18 (Homo sapiens)
Assay: cell-based
Settings: CHO, read-out: % inhibition of Δ9-THC (10 µM)-induced β-arrestin recruitment at GPR18, test compound at 10 µM
Criterion: inhibition at 10 µM meeting or surpassing 70%. Met: MET. Not met: NOT MET.

COMPOUND	LABEL_CLASS
CCCCCc1cc(O)c2c(c1)OC(C)(C)[C@@H]1CCC(C)=C[C@@H]21 [Compound 1, Δ^9-tetrahydrocannabinol, reference compound]	NOT MET
CCCCc1ccc(O)c(-c2cc(C)ccc2O)c1	NOT MET
CCCCCCc1ccc(O)c(-c2cc(CCCCCC)ccc2O)c1	MET
CCCCCc1ccc(O)c(-c2cc(CCCCC)ccc2O)c1	MET
CCCCCCc1ccc(O)c(-c2cc(CCC)ccc2O)c1	MET
CCCc1ccc(O)c(-c2cc(C)ccc2O)c1	NOT MET

Q) Quick check, inhibition at 10 µM >= 70%? CCCCc1ccc(O)c(-c2cc(CCCC)ccc2O)c1
A) MET

Q) Quick check, inhibition at 10 µM >= 70%? CCCCCc1ccc(O)c(-c2cc(CC)ccc2O)c1
A) MET

Q) Quick check, inhibition at 10 µM >= 70%? CCCCCCC(C)(C)c1ccc(C2CC(O)CCC2CCCO)c(O)c1 (single isomer, unassigned; (-)) [Compound 4, reference compound]
A) MET

Q) Quick check, inhibition at 10 µM >= 70%? CCCc1ccc(O)c(-c2cc(CCC)ccc2OC)c1 [Compound 12a, methoxytetrahydromagnolol]
A) NOT MET

Q) Quick check, inhibition at 10 µM >= 70%? CCCCCc1ccc(O)c(-c2cc(CCCC)ccc2O)c1
A) MET

###

Target: human GPR18 (Homo sapiens, UniProt Q14330)
Sequence (Q14330 whole entry): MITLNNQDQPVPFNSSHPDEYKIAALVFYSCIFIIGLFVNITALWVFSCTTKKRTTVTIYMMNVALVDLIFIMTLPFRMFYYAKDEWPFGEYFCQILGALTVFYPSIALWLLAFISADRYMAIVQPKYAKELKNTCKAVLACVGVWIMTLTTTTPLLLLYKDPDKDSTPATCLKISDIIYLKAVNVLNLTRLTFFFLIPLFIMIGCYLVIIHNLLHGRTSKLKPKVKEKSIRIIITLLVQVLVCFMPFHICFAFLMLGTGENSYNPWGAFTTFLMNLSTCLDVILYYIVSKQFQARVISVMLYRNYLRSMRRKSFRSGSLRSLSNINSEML
Conditions: read-out: GPR18 IC50, β-arrestin recruitment; antagonist mode vs. Δ9-THC (10 µM)
MEASURED_METRIC: IC50 (µM)
Give just the numeric value; µM need not be written.

Q) For the compound Cc1c(C(=O)NN2CCCCC2)nn(-c2ccc(Cl)cc2Cl)c1-c1ccc(Cl)cc1 [Compound 5, rimonabant, reference compound] , give its reported IC50.
A) 10.1
